pKd values for the molecules below.
Target: Fatty acid-binding protein, liver (Homo sapiens, UniProt P07148)
Sequence (P07148 whole entry): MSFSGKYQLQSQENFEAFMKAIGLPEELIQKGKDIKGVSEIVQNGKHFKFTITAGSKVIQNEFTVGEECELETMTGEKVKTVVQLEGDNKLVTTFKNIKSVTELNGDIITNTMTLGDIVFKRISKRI
Test Description: Binding affinity to recombinant human N-terminal His6 and Avi-tagged FABP1 expressed in Escherichia coli NEB cells by surface plasmon resonance method
pKd: −log10 of the molar value.

// below: answered molecules
Cc1ccccc1CN1CCN(C(=O)c2cccnc2)CC1
< 3.00
COC(=O)c1cscc1-c1ccc(C(=O)N2CCOCC2)o1
< 3.00
O=C1NCCOc2ccc(F)cc21
< 3.00
c1ccc(CNc2ccccn2)cc1
3.52
CN1CCN(C(=O)c2ccc(=O)n(Cc3ccc(Cl)cc3)c2)CC1
< 3.00

# input molecule: Nc1c2c(nc3ccccc13)CCCC2 ; wanted: its pKd 3.05

Can you check CS(=O)(=O)N1CCCC(NCc2ccccc2)CC1 (centres undefined) next? < 3.00

Can you check Cc1cc2nc(N)[nH]c2cc1C next? < 3.00

Can you check O=C(c1ccco1)N1CCN(Cc2ccc3c(c2)OCO3)CC1 next? 3.40

----------
Target: Gastrotropin (Homo sapiens, UniProt P51161)
Sequence (P51161 whole entry): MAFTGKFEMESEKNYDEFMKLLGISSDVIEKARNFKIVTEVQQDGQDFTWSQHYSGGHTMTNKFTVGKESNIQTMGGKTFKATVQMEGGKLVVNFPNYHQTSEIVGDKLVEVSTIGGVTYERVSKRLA
Test Description: Binding affinity to recombinant human N-terminal His6 and Avi-tagged FABP6 expressed in Escherichia coli NEB cells by surface plasmon resonance method
pKd: −log10 of the molar value.
Experimental Endpoint: pKd

// below: answered compounds
Nc1c2c(nc3ccccc13)CCCC2
3.70
CS(=O)(=O)N1CCCC(NCc2ccccc2)CC1 (centres undefined)
3.52

a. O=C1NCCOc2ccc(F)cc21
b. Cc1ccccc1CN1CCN(C(=O)c2cccnc2)CC1
Compare a and b by numeric pKd and name the larger one. Refer to your chosen item by its label in the answer. a

Attribution: ChEMBL document CHEMBL4431332
